target: human ether-à-go-go-related gene (hERG) potassium channel (human, UniProt Q12809); test: primary screen, population patch clamp on CHO cells stably expressing hERG; higher = less effect of the substance;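 also: peak tail current of the secondary pulse compared with the same well before compound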
Sequence (Q12809 whole entry, looked up): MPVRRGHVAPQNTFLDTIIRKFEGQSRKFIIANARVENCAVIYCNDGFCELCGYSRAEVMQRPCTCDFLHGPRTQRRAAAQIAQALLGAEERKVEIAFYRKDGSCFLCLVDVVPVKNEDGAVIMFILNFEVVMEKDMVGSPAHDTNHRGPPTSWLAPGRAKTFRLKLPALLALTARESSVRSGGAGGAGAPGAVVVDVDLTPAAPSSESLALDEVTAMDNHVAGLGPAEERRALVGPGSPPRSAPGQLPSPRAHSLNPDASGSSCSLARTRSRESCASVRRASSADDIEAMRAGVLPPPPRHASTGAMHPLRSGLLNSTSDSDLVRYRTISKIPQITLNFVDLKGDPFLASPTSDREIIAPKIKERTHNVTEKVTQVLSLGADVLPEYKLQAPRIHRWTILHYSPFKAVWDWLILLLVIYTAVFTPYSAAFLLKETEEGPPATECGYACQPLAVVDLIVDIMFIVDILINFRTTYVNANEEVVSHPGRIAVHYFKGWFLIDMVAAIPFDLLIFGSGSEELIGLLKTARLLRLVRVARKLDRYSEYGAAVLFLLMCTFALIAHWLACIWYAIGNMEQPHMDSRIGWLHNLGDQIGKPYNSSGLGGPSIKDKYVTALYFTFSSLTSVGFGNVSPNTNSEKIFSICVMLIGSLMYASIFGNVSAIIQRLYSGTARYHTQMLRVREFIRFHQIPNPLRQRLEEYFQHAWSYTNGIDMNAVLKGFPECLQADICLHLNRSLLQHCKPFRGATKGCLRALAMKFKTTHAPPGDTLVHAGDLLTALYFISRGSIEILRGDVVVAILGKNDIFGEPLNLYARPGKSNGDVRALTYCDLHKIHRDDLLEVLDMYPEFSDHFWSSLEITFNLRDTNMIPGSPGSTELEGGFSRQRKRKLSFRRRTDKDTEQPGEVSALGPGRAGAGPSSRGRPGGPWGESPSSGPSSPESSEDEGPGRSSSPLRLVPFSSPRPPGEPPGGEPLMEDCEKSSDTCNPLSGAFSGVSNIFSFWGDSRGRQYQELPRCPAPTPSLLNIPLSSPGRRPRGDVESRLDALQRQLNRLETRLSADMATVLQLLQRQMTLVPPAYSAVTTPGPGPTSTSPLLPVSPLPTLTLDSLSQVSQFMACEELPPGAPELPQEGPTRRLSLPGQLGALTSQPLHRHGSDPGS
Hit rate of the full screen: of about 310,000 compounds, about 14,000 (4.5%) showed an effect of 50% or more. The effect is printed as a negative number. This excerpt belongs to a sample that is enriched for strong results.
quantityMeasured: hERG current change (%, negative = inhibition) at 10uM (%)

[
  {
    "molecule": "CCCCNC(=O)NS(=O)(=O)c1cnccc1Sc1ccc(Cl)cc1",
    "reading": 12.1
  },
  {
    "molecule": "Cc1ccc(S(=O)(=O)N(C)C)cc1NC(=O)C(C)OC(=O)c1ccc2ccccc2n1 (stereo not shown)",
    "reading": -26.8
  },
  {
    "molecule": "C=CCN1CC(c2nc3ccccc3n2Cc2cccc3ccccc23)CC1=O (stereo not shown)",
    "reading": -24.2
  },
  {
    "molecule": "CC1(C)CC(NC(=O)c2cccc(S(=O)(=O)N(Cc3ccccc3)c3ccccc3)c2)CC(C)(C)N1",
    "reading": -45.3
  },
  {
    "molecule": "O=C(Cc1n[nH]c(=O)c2ccccc12)NC(c1ccccc1)c1ccccc1",
    "reading": 6.6
  },
  {
    "molecule": "COc1ccc(N2CC(C(=O)NCc3nnnn3-c3ccc(C)c(C)c3)CC2=O)cc1 (stereo not shown)",
    "reading": -19.6
  },
  {
    "molecule": "O=C(O)c1ccc(Cl)c(S(=O)(=O)N(Cc2ccccc2)c2ccc(F)cc2)c1",
    "reading": 13.9
  },
  {
    "molecule": "CC(C)(C)OC(=O)N1CC(O)CC1C(=O)OCC(=O)c1ccccc1 (stereo not shown)",
    "reading": 5.86
  },
  {
    "molecule": "CCN(CC)CCNC(=O)c1cc(-c2cccnc2)nc2ccc(S(=O)(=O)N3CCC(C)CC3)cc12",
    "reading": -65.1
  },
  {
    "molecule": "COc1cccc(NC(=O)C(c2ccccc2)N2CCNC(=O)C2)c1 (stereo not shown)",
    "reading": -7.23
  },
  {
    "molecule": "COc1ccccc1N(Cc1ccccc1)S(=O)(=O)c1cccc(C(=O)O)c1",
    "reading": 10.9
  },
  {
    "molecule": "COc1ccc(NC(=O)CSc2nc3ccccc3c(=O)n2CCC(=O)N2CCCCC2)cc1",
    "reading": -69.2
  },
  {
    "molecule": "CC1(C)Oc2ccc3ccc(=O)oc3c2[C@@H](O)[C@H]1O",
    "reading": 15.5
  },
  {
    "molecule": "COCCNC(=O)c1cc(-c2ccccn2)nc2ccc(S(=O)(=O)N3CCC(C)CC3)cc12",
    "reading": -61.8
  },
  {
    "molecule": "O=C1COc2ccc(C(=O)COC(=O)Cc3ccccc3)cc2N1",
    "reading": -13
  },
  {
    "molecule": "CC(=O)Nc1ccc(-c2csc(NC(=O)C3CCN(S(=O)(=O)c4cccs4)CC3)n2)cc1",
    "reading": -2.9
  },
  {
    "molecule": "O=C(O)c1ccc(Cl)c(S(=O)(=O)N(Cc2ccccc2)c2ccccc2)c1",
    "reading": 7.76
  },
  {
    "molecule": "CC(=O)c1c(C)n(Cc2ccccc2)c2ccc(O)cc12",
    "reading": 12.8
  },
  {
    "molecule": "COC(=O)c1cccc(NC(=O)CC2C(=O)NCCN2C(=O)Nc2cc(C)cc(C)c2)c1 (stereo not shown)",
    "reading": 11
  },
  {
    "molecule": "CCOCCCNC(=O)c1cc(-c2cccnc2)nc2ccc(S(=O)(=O)N3CCC(C)CC3)cc12",
    "reading": 12.9
  },
  {
    "molecule": "CC(C)Cc1nnc(NC(=O)CCC(=O)N2CCN(c3ccccc3)CC2)s1",
    "reading": 13.2
  },
  {
    "molecule": "COc1ccc(C2=NOC(C(=O)Nc3ccc4c(c3)OCCO4)C2)c(OC)c1 (stereo not shown)",
    "reading": 3.96
  },
  {
    "molecule": "O=C(NC1C2CC3CC(C2)CC1C3)c1ccc2c(c1)OCO2 (stereo not shown)",
    "reading": -5.92
  },
  {
    "molecule": "COc1ccc(CNC(=O)C(C)n2ccc3cc(S(=O)(=O)N4CCCCCC4)ccc32)cc1 (stereo not shown)",
    "reading": 1.82
  },
  {
    "molecule": "Cc1ccc(C2(C)NC(=O)N(CC(=O)NCc3ccccc3Cl)C2=O)cc1 (stereo not shown)",
    "reading": 9.54
  },
  {
    "molecule": "O=C(Nc1ccccc1C(=O)NC1CC1)c1ccccc1",
    "reading": 12.9
  },
  {
    "molecule": "COc1ccccc1C(=O)NCc1ccc(-c2nc3ccccc3s2)cc1",
    "reading": -11
  },
  {
    "molecule": "COc1ccccc1CCNC(=O)NC1CCCCC1",
    "reading": -12.1
  }
]
